test system: Abp1 PPIs; experiment: DHFR-PCA of Abp1 SH3-swapped baits (Fig. 2B-D, S2C, S2F); assay type: cell-based, Saccharomyces cerevisiae; conditions: distance to Abp1 bait with BZZ1-1 SH3; sheet Fig2C;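 note: Euclidean distance between DHFR-PCA score profiles of the baits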
MEASURED_ATTRIBUTE: Protein-protein interaction distance between Abp1 SH3-swapped baits, to BZZ1-1

Note Protein-protein interaction distance between Abp1 SH3-swapped baits, to BZZ1-1 for the molecule shown: PIN3 (protein, UniProt Q06449 2-215, looked up) [PSI+] inducibility protein 3: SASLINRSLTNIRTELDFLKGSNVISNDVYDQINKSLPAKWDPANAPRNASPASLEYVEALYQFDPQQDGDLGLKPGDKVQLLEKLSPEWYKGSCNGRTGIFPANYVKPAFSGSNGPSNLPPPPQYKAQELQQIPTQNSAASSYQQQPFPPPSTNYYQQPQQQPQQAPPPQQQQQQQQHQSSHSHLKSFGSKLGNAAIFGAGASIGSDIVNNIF
8.164

Note Protein-protein interaction distance between Abp1 SH3-swapped baits, to BZZ1-1 for the molecule shown: LSB1 (protein, UniProt P53281 2-241, looked up) LAS seventeen-binding protein …: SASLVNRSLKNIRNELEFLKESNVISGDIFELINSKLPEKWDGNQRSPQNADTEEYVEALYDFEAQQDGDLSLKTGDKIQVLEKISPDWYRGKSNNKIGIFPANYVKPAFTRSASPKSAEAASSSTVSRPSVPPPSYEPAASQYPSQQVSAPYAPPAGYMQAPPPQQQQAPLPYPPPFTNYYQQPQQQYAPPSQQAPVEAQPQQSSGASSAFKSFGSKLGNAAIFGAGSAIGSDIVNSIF
10.43

Note Protein-protein interaction distance between Abp1 SH3-swapped baits, to BZZ1-1 for the molecule shown: PEX13 (protein, UniProt P80667 1-386, looked up) Peroxisomal membrane protein …: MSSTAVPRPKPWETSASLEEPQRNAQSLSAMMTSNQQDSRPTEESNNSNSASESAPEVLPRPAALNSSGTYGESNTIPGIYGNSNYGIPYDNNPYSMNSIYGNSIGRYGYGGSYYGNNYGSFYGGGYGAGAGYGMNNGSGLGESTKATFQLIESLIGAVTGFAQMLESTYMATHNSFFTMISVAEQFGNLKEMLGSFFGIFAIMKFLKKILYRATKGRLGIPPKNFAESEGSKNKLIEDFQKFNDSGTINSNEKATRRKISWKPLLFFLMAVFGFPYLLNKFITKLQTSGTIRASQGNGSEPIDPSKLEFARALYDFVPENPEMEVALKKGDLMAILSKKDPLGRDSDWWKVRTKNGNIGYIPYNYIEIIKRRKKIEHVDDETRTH
7.297

Note Protein-protein interaction distance between Abp1 SH3-swapped baits, to BZZ1-1 for the molecule shown: SHO1 (protein, UniProt P40073 1-367, looked up) High osmolarity signaling …: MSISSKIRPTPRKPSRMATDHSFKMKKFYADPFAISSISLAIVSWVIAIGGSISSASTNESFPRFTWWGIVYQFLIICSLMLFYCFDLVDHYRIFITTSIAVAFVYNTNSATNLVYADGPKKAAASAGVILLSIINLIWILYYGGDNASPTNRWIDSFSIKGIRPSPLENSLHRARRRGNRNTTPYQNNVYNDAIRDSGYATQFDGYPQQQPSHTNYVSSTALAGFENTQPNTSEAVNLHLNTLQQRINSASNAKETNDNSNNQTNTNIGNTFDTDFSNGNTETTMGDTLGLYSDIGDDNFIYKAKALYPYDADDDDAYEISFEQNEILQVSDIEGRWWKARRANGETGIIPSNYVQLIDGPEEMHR
4.878
